Assay: C15_C3 REP
Settings: human, C15 C3 REP (cell-based assay)
Measurement name: CC50 (µM)

>>> quantitative_result("CC(=O)N[C@]12C(=O)c3c(N)cccc3[C@@]1(O)Oc1cc(C3CC3)ccc12 (single isomer, unassigned)")
50
>>> quantitative_result("CC(=O)N[C@]12C(=O)c3c(N)cccc3[C@@]1(O)Oc1cc(C(C)C)ccc12 (single isomer, unassigned)")
35.1
>>> quantitative_result("CC(=O)N[C@@]12C(=O)c3c(N)cccc3[C@]1(O)Oc1cc(Cl)ccc12 (single isomer, unassigned)")
25
>>> quantitative_result("CC(=O)N[C@@]12C(=O)c3c(N)cccc3[C@]1(O)Oc1cc(C(F)(F)F)ccc12 (single isomer, unassigned)")
25
>>> quantitative_result("CC(=O)NC12C(=O)c3c(N)cccc3C1(O)Oc1cc(OC(F)(F)F)ccc12 (racemic)")
50
>>> quantitative_result("CC(=O)N[C@@]12C(=O)c3c(N)cccc3[C@]1(O)Oc1cc(C)ccc12 (single isomer, unassigned)")
25
>>> quantitative_result("CC(=O)N[C@@]12C(=O)c3c(N)cccc3[C@]1(O)Oc1cc(C3CC3)ccc12 (single isomer, unassigned)")
50
>>> quantitative_result("CC(=O)NC12C(=O)c3c(N)cccc3C1(O)Oc1cc(C(F)(F)F)ccc12 (racemic)")
21.4
>>> quantitative_result("CC(=O)N[C@]12C(=O)c3c(N)cccc3[C@@]1(O)Oc1cc(Br)ccc12")
50
>>> quantitative_result("CC(=O)NC12C(=O)c3c(N)cccc3C1(O)Oc1cc(C3CC3)ccc12 (racemic)")
50
>>> quantitative_result("CC(=O)NC12C(=O)c3c(N)cccc3C1(O)Oc1ccc(C)cc12 (racemic)")
25
>>> quantitative_result("CC(=O)N(C)C12C(=O)c3c(N)cccc3C1(O)Oc1cc(C(F)(F)F)ccc12 (stereo not drawn)")
25
